Item-by-item account of mean geometric MIC, Vancomycin Sensitive Strains
# Tested on: vancomycin-susceptible enterococci
# Protocol text: broth micro-dilution, mean geometric MIC
# Assay type: cell-based, Enterococcus faecium and Enterococcus faecalis
# Condition context: enterococci, 24-hour incubation
Supply the numeric figure in µg/mL, leaving out any unit text.

A selection of reference data follows.
Compound: CNC(CC(C)C)C(=O)NC1C(=O)NC(CC(N)=O)C(=O)NC2C(=O)NC3C(=O)NC(C(=O)NC(C(=O)O)c4cc(O)cc(O)c4-c4cc3ccc4O)C(OC3CC(C)(N)C(O)C(C)O3)c3ccc(c(Cl)c3)Oc3cc2cc(c3OC2OC(CO)C(O)C(O)C2OC2CC(C)(NCc3ccc(-c4ccc(C)cc4)cc3C)C(O)C(C)O2)Oc2ccc(cc2Cl)C1O (stereo not drawn)
Measurement units: µg/mL
Measurement: 0.072
//
Compound: CNC(CC(C)C)C(=O)NC1C(=O)NC(CC(N)=O)C(=O)NC2C(=O)NC3C(=O)NC(C(=O)NC(C(=O)O)c4cc(O)cc(O)c4-c4cc3ccc4O)C(OC3CC(C)(NCc4ccc([N+](=O)[O-])cc4)C(O)C(C)O3)c3ccc(c(Cl)c3)Oc3cc2cc(c3OC2OC(CO)C(O)C(O)C2OC2CC(C)(NCc3ccc([N+](=O)[O-])cc3)C(O)C(C)O2)Oc2ccc(cc2Cl)C1O (stereo not drawn)
Measurement units: µg/mL
Measurement: 0.38
//
Compound: CN[C@H](CC(C)C)C(=O)N[C@H]1C(=O)N[C@@H](CC(N)=O)C(=O)N[C@H]2C(=O)N[C@H]3C(=O)N[C@H](C(=O)N[C@H](C(=O)O)c4cc(O)cc(O)c4-c4cc3ccc4O)[C@H](O[C@H]3C[C@](C)(N)[C@@H](O)[C@H](C)O3)c3ccc(c(Cl)c3)Oc3cc2cc(c3O[C@@H]2O[C@H](CO)[C@@H](O)[C@H](O)[C@H]2O[C@H]2C[C@](C)(N)[C@@H](O)[C@H](C)O2)Oc2ccc(cc2Cl)[C@H]1O [Compound A82846B, A82846B, reference compound]
Measurement units: µg/mL
Measurement: 0.22
//
Compound: CNC(CC(C)C)C(=O)NC1C(=O)NC(CC(N)=O)C(=O)NC2C(=O)NC3C(=O)NC(C(=O)NC(C(=O)O)c4cc(O)cc(O)c4-c4cc3ccc4O)C(OC3CC(C)(N)C(O)C(C)O3)c3ccc(c(Cl)c3)Oc3cc2cc(c3OC2OC(CO)C(O)C(O)C2OC2CC(C)(NCc3ccc(-c4ccc(C(F)(F)F)cc4)cc3)C(O)C(C)O2)Oc2ccc(cc2Cl)C1O (stereo not drawn)
Measurement units: µg/mL
Measurement: 0.032
//
Compound: CNC(CC(C)C)C(=O)NC1C(=O)NC(CC(N)=O)C(=O)NC2C(=O)NC3C(=O)NC(C(=O)NC(C(=O)O)c4cc(O)cc(O)c4-c4cc3ccc4O)C(OC3CC(C)(N)C(O)C(C)O3)c3ccc(c(Cl)c3)Oc3cc2cc(c3OC2OC(CO)C(O)C(O)C2OC2CC(C)(NCCCCc3ccc(OC)cc3)C(O)C(C)O2)Oc2ccc(cc2Cl)C1O (stereo not drawn)
Measurement units: µg/mL
Measurement: 0.13

Then this compound:
-- ask Fill in the blank: the reported mean geometric MIC, Vancomycin Sensitive Strains of CNC(CC(C)C)C(=O)NC1C(=O)NC(CC(N)=O)C(=O)NC2C(=O)NC3C(=O)NC(C(=O)NC(C(=O)O)c4cc(O)cc(O)c4-c4cc3ccc4O)C(OC3CC(C)(N)C(O)C(C)O3)c3ccc(c(Cl)c3)Oc3cc2cc(c3OC2OC(CO)C(O)C(O)C2OC2CC(C)(NCc3ccc(C(c4ccccc4)c4ccccc4)cc3)C(O)C(C)O2)Oc2ccc(cc2Cl)C1O (stereo not drawn) is ____.
-- reply 0.50

All figures here come from patent US5840684A.
